The measured values listed here are drawn from a polymer gas permeability compilation.

metric_name: CO2 permeability (Barrer)
Only the number, expressed in Barrer, is required.

Example compounds with recorded CO2 permeability:
{"compound": "*c1ccc(Oc2ccc(N3C(=O)c4ccc(-c5ccc6c(c5)C(=O)N(*)C6=O)cc4C3=O)cc2)cc1 (repeat unit)", "CO2 permeability, Barrer": 0.921}
{"compound": "*CCCC* (repeat unit)", "CO2 permeability, Barrer": 48.4}
{"compound": "*CCC(F)(F)C(*)(F)F (repeat unit)", "CO2 permeability, Barrer": 1.98}

Now examine the next entry.
Lab note: *c1ccc(N(c2ccc(N3C(=O)c4ccc(C(c5ccc6c(c5)C(=O)N(*)C6=O)(C(F)(F)F)C(F)(F)F)cc4C3=O)cc2)c2ccc(N(c3ccccc3)c3ccccc3)cc2)cc1 (repeat unit) gave CO2 permeability of 11.8

----------
Here the recorded N2 permeability is given for each entry.
Only the number, expressed in Barrer, is required.

{"molecule": "*Oc1ccc(C(C)(C)c2ccc(C(C)(C)c3ccc(Oc4ccc(S(=O)(=O)c5ccc(*)cc5)cc4)cc3)cc2)cc1 (repeat unit)", "N2 permeability (Barrer)": 0.321}
{"molecule": "*C(=C(*)c1ccc2c(c1)CCC2)c1ccc([Si](C)(C)C)cc1 (repeat unit)", "N2 permeability (Barrer)": 170}
{"molecule": "*/C=C/c1ccc(*)cc1[Si](C)(C)C(C)(C)C (repeat unit)", "N2 permeability (Barrer)": 1.5}
{"molecule": "*Oc1ccc(C(C)(C)c2ccc(OC(=O)c3cccc(C(*)=O)c3)c(C(C)C)c2)cc1C(C)C (repeat unit)", "N2 permeability (Barrer)": 0.273}
{"molecule": "*C(C(=O)OC(C)C)C(*)C(=O)OC1CCCCC1 (repeat unit)", "N2 permeability (Barrer)": 3}

Lab note: *Oc1ccc(S(=O)(=O)c2ccc(Oc3c(C)cc(-c4cc(C)c(*)c(C)c4)cc3C)cc2)cc1 (repeat unit) gave N2 permeability of 1.21

----------
metric_name: CO2 permeability (Barrer)
Only the number, expressed in Barrer, is required.

Example compounds with recorded CO2 permeability:
{"compound": "*C(=C(*)c1ccc2c(c1)C(C)(C)c1ccccc1-2)c1ccc(F)c(F)c1 (repeat unit)", "measured_number": 26000}
{"compound": "*Oc1c(C)cc(C(c2cc(C)c(OC(*)=O)c(C)c2)(C(F)(F)F)C(F)(F)F)cc1C (repeat unit)", "measured_number": 71.5}
{"compound": "*c1cc(C)c2c(c1)S(=O)(=O)c1cc(N3C(=O)c4ccc(-c5ccc6c(c5)C(=O)N(*)C6=O)cc4C3=O)cc(C)c1-2 (repeat unit)", "measured_number": 7.73}

Now examine the next entry.
Lab note: *Oc1ccc(C(C)(C)c2ccc(Oc3ccc(C(=O)c4ccc(*)cc4)cc3)cc2)cc1 (repeat unit) gave CO2 permeability of 3.5

----------
Cut-off 0.4 Barrer on N2 permeability, inclusive. At or above means MET; below means NOT MET.

Here are 3 compounds together with their reported answers.
{"compound": "*c1ccc(C(c2ccc(N3C(=O)c4ccc(Oc5cc(C)c(Oc6ccc7c(c6)C(=O)N(*)C7=O)c(C)c5C)cc4C3=O)cc2)(C(F)(F)F)C(F)(F)F)cc1 (repeat unit)", "qualitative_label": "MET"}
{"compound": "*c1cccc(N2C(=O)c3ccc(Oc4ccc(Oc5ccc6c(c5)C(=O)N(*)C6=O)cc4)cc3C2=O)c1 (repeat unit)", "qualitative_label": "NOT MET"}
{"compound": "*c1ccc(Cc2ccc(N3C(=O)c4ccc(C(=O)c5ccc6c(c5)C(=O)N(*)C6=O)cc4C3=O)cc2)cc1 (repeat unit)", "qualitative_label": "NOT MET"}

Is it the case that *Nc1c(C)cc(C(C)(C)c2cc(C)c(NC(=O)c3ccc(Oc4cc(C(C)(C)C)c(Oc5ccc(C(*)=O)cc5)cc4C(C)(C)C)cc3)c(C)c2)cc1C (repeat unit) has N2 permeability reaching or exceeding 0.4 Barrer? MET

Is it the case that *c1ccc(Oc2ccc(C(c3ccc(Oc4ccc(-n5c(=O)c6cc7c(=O)n(*)c(=O)c7cc6c5=O)cc4)cc3)(C(F)(F)F)C(F)(F)F)cc2)cc1 (repeat unit) has N2 permeability reaching or exceeding 0.4 Barrer? MET

Is it the case that *c1ccc(C(C)(C)c2ccc(N3C(=O)c4ccc(Oc5ccc(Oc6ccc7c(c6)C(=O)N(*)C7=O)cc5)cc4C3=O)cc2)cc1 (repeat unit) has N2 permeability reaching or exceeding 0.4 Barrer? NOT MET

Is it the case that *CC1CC(*)OCO1 (repeat unit) has N2 permeability reaching or exceeding 0.4 Barrer? NOT MET

Is it the case that *Oc1ccc(C(C)(C)c2ccc(Oc3ccc4c(c3)C(=O)N(c3cccc(N5C(=O)c6ccc(*)cc6C5=O)c3)C4=O)cc2)cc1 (repeat unit) has N2 permeability reaching or exceeding 0.4 Barrer? NOT MET

Is it the case that *c1ccc(Oc2ccc(C(c3ccc(Oc4ccc(N5C(=O)c6ccc(-c7ccc8c(c7)C(=O)N(*)C8=O)cc6C5=O)cc4)cc3)(C(F)(F)F)C(F)(F)F)cc2)cc1 (repeat unit) has N2 permeability reaching or exceeding 0.4 Barrer? NOT MET

Is it the case that *Oc1ccc2c(c1)C1(CC2(C)C)CC(C)(C)c2ccc(Oc3ccc4c(c3)C(=O)N(c3cccc(N5C(=O)c6ccc(*)cc6C5=O)c3)C4=O)cc21 (repeat unit) has N2 permeability reaching or exceeding 0.4 Barrer? NOT MET

Is it the case that *c1cc2c(cc1C)-c1cc(C)c(N3C(=O)c4ccc(S(=O)(=O)c5ccc6c(c5)C(=O)N(*)C6=O)cc4C3=O)cc1S2(=O)=O (repeat unit) has N2 permeability reaching or exceeding 0.4 Barrer? NOT MET

Is it the case that *C=C(*)c1cccc(O[Si](C)(C)C(C)(C)C)c1 (repeat unit) has N2 permeability reaching or exceeding 0.4 Barrer? MET

Is it the case that *c1ccc(Oc2ccc(N3C(=O)c4cc(Oc5ccccc5)c(-c5cc6c(cc5Oc5ccccc5)C(=O)N(*)C6=O)cc4C3=O)cc2)cc1 (repeat unit) has N2 permeability reaching or exceeding 0.4 Barrer? MET

Is it the case that *Oc1cc(C)c(C2(c3cc(C(C)C)c(Oc4ccc(S(=O)(=O)c5ccc(*)cc5)cc4)cc3C)OC(=O)c3ccccc32)cc1C(C)C (repeat unit) has N2 permeability reaching or exceeding 0.4 Barrer? MET

Is it the case that *CC(*)(C)C (repeat unit) has N2 permeability reaching or exceeding 0.4 Barrer? MET

Is it the case that *Oc1ccc(C(C)(c2ccccc2)c2ccc(Oc3ccc(S(=O)(=O)c4ccc(*)cc4)cc3)cc2)cc1 (repeat unit) has N2 permeability reaching or exceeding 0.4 Barrer? NOT MET

Is it the case that *CC(*)c1ccc(O)cc1 (repeat unit) has N2 permeability reaching or exceeding 0.4 Barrer? NOT MET

Is it the case that *c1ccc(N(c2ccc(N3C(=O)c4ccc(C(c5ccc6c(c5)C(=O)N(*)C6=O)(C(F)(F)F)C(F)(F)F)cc4C3=O)cc2)c2ccc(N(c3ccc(OC)cc3)c3ccc(OC)cc3)cc2)cc1 (repeat unit) has N2 permeability reaching or exceeding 0.4 Barrer? MET

Is it the case that */C(C)=C(/*)[Si](C)(C)CCC (repeat unit) has N2 permeability reaching or exceeding 0.4 Barrer? MET

Is it the case that *C(=C(*)c1ccc(C(C)(C)C)cc1)c1ccc(O)cc1 (repeat unit) has N2 permeability reaching or exceeding 0.4 Barrer? MET

Is it the case that *c1cccc(N2C(=O)c3ccc(Oc4ccc5c(c4)C(=O)N(*)C5=O)cc3C2=O)c1 (repeat unit) has N2 permeability reaching or exceeding 0.4 Barrer? NOT MET

Is it the case that *OC(=O)c1ccc(C(=O)Oc2ccc(C(C)(C)c3ccc(O*)c(C)c3)cc2C)cc1 (repeat unit) has N2 permeability reaching or exceeding 0.4 Barrer? NOT MET

Is it the case that *Oc1ccc(C(=O)c2cccc(-c3cccc(C(=O)c4ccc(Oc5ccc(C(c6ccc(*)cc6)(C(F)(F)F)C(F)(F)F)cc5)cc4)c3)c2)cc1 (repeat unit) has N2 permeability reaching or exceeding 0.4 Barrer? NOT MET

Is it the case that *Oc1ccc(-c2c(-c3ccc(Br)cc3)c(-c3ccc(Br)cc3)c(-c3ccc4c(c3)Oc3c(C#N)c(*)c(*)c(C#N)c3O4)c(-c3ccc(Br)cc3)c2-c2ccc(Br)cc2)cc1O* (repeat unit) has N2 permeability reaching or exceeding 0.4 Barrer? MET

Is it the case that *Oc1ccc(C(=O)c2ccc(-c3ccc(C(=O)c4ccc(Oc5ccc(C(C)(C)c6ccc(*)cc6)cc5)cc4)cc3)cc2)cc1 (repeat unit) has N2 permeability reaching or exceeding 0.4 Barrer? NOT MET

Is it the case that *Oc1c(C)cc(C(c2cc(C)c(OC(*)=O)c(C)c2)(C(F)(F)F)C(F)(F)F)cc1C (repeat unit) has N2 permeability reaching or exceeding 0.4 Barrer? MET

----------
metric_name: H2 permeability

{"compound": "*Oc1c(C)cc(C(c2cc(C)c(OC(*)=O)c(C)c2)(C(F)(F)F)C(F)(F)F)cc1C (repeat unit)", "H2 permeability": "126 Barrer"}
{"compound": "*c1ccc(C(C)(C)c2ccc(N3C(=O)c4ccc(Oc5ccc(Oc6ccc7c(c6)C(=O)N(*)C7=O)cc5)cc4C3=O)cc2)cc1 (repeat unit)", "H2 permeability": "9.33 Barrer"}

Lab note: *c1nc2cc(-c3ccc4[nH]c(-c5cc(Br)c(*)cc5Br)nc4c3)ccc2[nH]1 (repeat unit) gave H2 permeability of 1.89 Barrer

Lab note: *c1cc(C(c2ccc(C)c(-n3c(=O)c4cc5oc6cc7c(cc6oc5cc4c3=O)C3(CC(C)(C)c4cc5oc6cc8c(=O)n(*)c(=O)c8cc6oc5cc43)CC7(C)C)c2)(C(F)(F)F)C(F)(F)F)ccc1C (repeat unit) gave H2 permeability of 220 Barrer

Lab note: *c1ccc(Oc2ccc(N3C(=O)c4ccc([Si](C)(C)c5ccc6c(c5)C(=O)N(*)C6=O)cc4C3=O)cc2)cc1 (repeat unit) gave H2 permeability of 9.83 Barrer

Lab note: *c1c(C)c(C)c(N2C(=O)c3cc4c(cc3C2=O)C2(CC(C)(C)c3cc5c(cc32)C(=O)N(*)C5=O)CC4(C)C)c(C)c1C (repeat unit) gave H2 permeability of 1920 Barrer

Lab note: *C=C(*)c1cccc(O[Si](C)(C)C(C)(C)C)c1 (repeat unit) gave H2 permeability of 64 Barrer
